- tgt: T1, human MSLN-R2-his protein (human, UniProt Q13421 391-486)
- T1 construct: Region 2 of human MSLN, His-tagged; also called human MSLN-R2 protein; hMSLN-R2-his; not shown: His tag
- test: ELISA, coated MSLN-R2;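 also: chimeric antibodies bound to blocked coated plates for 2 h at 37 °C, TMB colour development stopped with HCl, with a negative control antibody for comparison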
parameter: OD450 at 0.0001 nM
Quote the value and follow it with the unit of measurement.

A selection of reference data follows.
[[record]]
binder = "S009-F1.62.9 (antibody, human IgG1, kappa, V domains shown, Human-murine chimeric antibody, human IgG1/kappa constant regions) VH: EVQLQQSGADLVKPGASVKLSCTVFGLNFKDTFMHWVRQRPEQGLEWIGRIDPANDNSIYGPKFQDKATITADTSSNTAYLHLSSLTSEDTAVYYCLYFDNWGHGTTLTVSS VL: DIVMTQAASSEPVTPGESVSISCRSDKSLLHSNGHNYLYWFLQRPGQSPHLLIYRMSNLASGVPDRFSGSGSGTAFTLRISRVEAEDVGVYYCMQHLEYPLTFGAGTKLELKR"
parameter = "OD450 at 0.0001 nM"
test_value = "0.03 OD450"

[[record]]
binder = "S009-F1.57.1 (antibody, human IgG1, kappa, V domains shown, Human-murine chimeric antibody, human IgG1/kappa constant regions) VH: EAQLQQSGAVFVKPGASVKLSCTASGFSSKDIFLHWVKQRPEQGLEWIGRIDPASDNTIYDPKFQDRATITSDRSSNTAYLQFSSLTSEDTAVYFCLYFDFWGQGTTLTVSS VL: DIVMTQATPSISVTPGESVSISCRSSESLLHSNGNTYLYWFLQRPGQSPQLLIYRMSNLASGVPDRFSVSGSGTAFTLRISRVEAEDVGVYYCMQHLEYPLTFGAGTKLELKR"
parameter = "OD450 at 0.0001 nM"
test_value = "0.05 OD450"

[[record]]
binder = "S009-F1.59.1 (antibody, human IgG1, kappa, V domains shown, Human-murine chimeric antibody, human IgG1/kappa constant regions) VH: EVKLEGSGGGLVQPGGSMMLSCVATGFTFSSYWMNWVRQSPDRGLEWVAEIRLKSNGFAAFYAESVKGRFTISRDDSKSSVYLQMNNLRTEDTGIYYCTYFVHWGQGILVTVSE VL: DIVLTQSPTSLAVSLGQRATISCRTSESVEYFGTILIQWYQQKPGQPPKLLIFGASNVESGVPARFSGSGSGTDFSLNIHPVEEEDIAMYFCQQNRKVPYTFGGGTTLELKR"
parameter = "OD450 at 0.0001 nM"
test_value = "0.03 OD450"


Now look at this one.
Ask | Specify OD450 at 0.0001 nM for S009-F1.25.10 (antibody, human IgG1, kappa, V domains shown, Human-murine chimeric antibody, human IgG1/kappa constant regions) VH: EVQLQQSGPELVKPGASLKISCKASGYSFTDYTMNWVKQSHGKNLEWIGLFNPYNGGISYNQKFKGKATLTVDKSSNTAYMELLSLTSDDSAVYFCARDGRGGFYAMDYWGQGTSVTVSS VL: DIQMTQTTSSLSASLGDRVTISCRASQDISIYLNWYQQKPDGPVKLLIYYTSRLHSGVPSRFSGSGSGTDFSLTISNLEQEDIATYFCQQGYTLPPWTFGGGTKLEIKR and stop.
Reply | 0.04 OD450
